TARGET_UNDER_TEST: T1, Unr CSD789 wild type (Drosophila, UniProt B7Z0E2 756-990)
T1 sequence: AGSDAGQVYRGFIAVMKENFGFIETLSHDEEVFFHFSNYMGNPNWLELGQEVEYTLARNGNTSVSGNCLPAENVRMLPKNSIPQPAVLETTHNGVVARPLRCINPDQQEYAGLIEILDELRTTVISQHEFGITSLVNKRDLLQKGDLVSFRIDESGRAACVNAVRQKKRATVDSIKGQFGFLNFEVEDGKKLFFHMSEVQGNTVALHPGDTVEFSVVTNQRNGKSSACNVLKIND
PROCEDURE_SUMMARY: fluorescence polarization
ASSAY_READOUT: Kd (µM)
Give bare numbers, in µM.

Measured Kd of AAAAAAAAAAAAAAA (ssRNA) [A15-mer, 3' labelled] : 21.1
